Hello, the source for this data is PubChem BioAssay, in case you need it.

# Test name: PSAC antagonists in infected red cells, primary screen, cell-based, P. falciparum Indochina, OD700, 2 h (AID 1155);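 further: lysis reports solute entry through the parasite surface anion channel PSAC; channel blockers reduce lysis of infected cells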
# Conditions used: P. falciparum Indochina infected erythrocytes, osmotic lysis OD700, called active from +8 up or from −8 down
Calls of active or inactive are those of the source.
Answer with one of the outcomes given here: Y for active, N for inactive

As a guide, the following entries are already answered.
INSERT INTO measurements (compound, qualitative_label) VALUES
  ('COCCOC(=O)N1C(=O)[C@@]2(c3cc(C#Cc4ccc(OC)cc4)ccc31)[C@H](C(=O)N1CCCCCCC1)[C@H]1C(=O)O[C@H](c3ccccc3)[C@H](c3ccccc3)N1[C@@H]2c1ccc(O)cc1', 'N'),
  ('CN(C)CCCNC(=O)[C@@H]1c2ccccc2C(=O)N(CC23CC4CC(CC(C4)C2)C3)[C@H]1c1ccc(CO)cc1', 'N');

Hi, do you know how O=C1O[C@@H](c2ccccc2)[C@@H](c2ccccc2)N2[C@@H](c3ccccc3OCCO)[C@]3(C(=O)Nc4ccc(C#CCCO)cc43)[C@@H](C(=O)N3CCN(c4ncccn4)CC3)[C@H]12 came out in this test?
N

Test call for this compound, please: C=C[C@@H](COC(C)=O)NS(=O)(=O)c1ccc(Br)cc1
N
